Reference source for all entries: paper PMC6497007

Test: Pharmacokinetics in plasma after a single intravenous administration to beagle dogs (LC-MS/MS, non-compartmental analysis)
Format: in vivo, beagle dog
Conditions: both sexes, beagle, dog, plasma, iv, 1 mg/kg, mean, 1 mg/kg single i.v., beagle dog, n = 5; read-out: Ke (converted)
QUANTITY: k el (s⁻¹)
Value expressed in s⁻¹; do not type the unit.

Ask: Data request, read-out k el, for O=C1CN=C(c2ccccc2)c2cc([N+](=O)[O-])ccc2N1CN1CCCC1
Result: 9.17e-05

---

Assay: Pharmacokinetics in plasma after a single intravenous administration to beagle dogs (LC-MS/MS, non-compartmental analysis)
Assay type: in vivo, beagle dog
Settings: both sexes, beagle, dog, plasma, iv, 1 mg/kg, median, 1 mg/kg single i.v., beagle dog, n = 5; read-out: t1/2 (converted)
Procedure: Aliquots (0.05 mL) of each plasma sample were added to glass tubes followed by 0.05 mL of IS (ropivacaine 100 ng/mL). The tubes were vortexed for 5 s and 0.1 mL of acetonitrile were added. […] Non-compartmental analysis was used to determine the pharmacokinetic parameters of neurounina-1 after the intravenous administration. […] The area under the plasma concentration vs. time curves from zero to the last detectable concentration (AUC0-tlast) were calculated by applying the linear-log trapezoid rule. […]
QUANTITY: half-life (h)
Value expressed in h; do not type the unit.

Ask: Data request, read-out half-life, for O=C1CN=C(c2ccccc2)c2cc([N+](=O)[O-])ccc2N1CN1CCCC1
Result: 1.94

---

Test: Pharmacokinetics in plasma after a single intravenous administration to beagle dogs (LC-MS/MS, non-compartmental analysis)
Assay type: in vivo, beagle dog
Details: both sexes, beagle, dog, plasma, iv, 0.3 mg/kg, median, 0.3 mg/kg single i.v., beagle dog plasma, n = 5
QUANTITY: C0 (ng/mL)
Value expressed in ng/mL; do not type the unit.

Ask: Data request, read-out C0, for O=C1CN=C(c2ccccc2)c2cc([N+](=O)[O-])ccc2N1CN1CCCC1
Result: 100

---

Assay: Pharmacokinetics in plasma after a single intravenous administration to beagle dogs (LC-MS/MS, non-compartmental analysis)
Format: in vivo, beagle dog
Conditions: both sexes, beagle, dog, plasma, iv, 0.3 mg/kg, median, 0.3 mg/kg single i.v., beagle dog, n = 5; read-out: t1/2 (converted)
QUANTITY: half-life (h)
Value expressed in h; do not type the unit.

Ask: Data request, read-out half-life, for O=C1CN=C(c2ccccc2)c2cc([N+](=O)[O-])ccc2N1CN1CCCC1 [Neurounina-1]
Result: 2.16

---

Test: Pharmacokinetics in plasma after a single intravenous administration to beagle dogs (LC-MS/MS, non-compartmental analysis)
Format: in vivo, beagle dog
Settings: both sexes, beagle, dog, plasma, iv, 0.3 mg/kg, mean, 0.3 mg/kg single i.v., beagle dog, n = 5
Method: Aliquots (0.05 mL) of each plasma sample were added to glass tubes followed by 0.05 mL of IS (ropivacaine 100 ng/mL). The tubes were vortexed for 5 s and 0.1 mL of acetonitrile were added. […] Non-compartmental analysis was used to determine the pharmacokinetic parameters of neurounina-1 after the intravenous administration. […] The area under the plasma concentration vs. time curves from zero to the last detectable concentration (AUC0-tlast) were calculated by applying the linear-log trapezoid rule. […]
QUANTITY: clearance (mL/min)
Value expressed in mL/min; do not type the unit.

Ask: Data request, read-out clearance, for O=C1CN=C(c2ccccc2)c2cc([N+](=O)[O-])ccc2N1CN1CCCC1 [Neurounina-1]
Result: 793

---

Experiment: Pharmacokinetics in plasma after a single intravenous administration to beagle dogs (LC-MS/MS, non-compartmental analysis)
Assay type: in vivo, beagle dog
Settings: both sexes, beagle, dog, plasma, iv, 0.3 mg/kg, mean, 0.3 mg/kg single i.v., beagle dog, n = 5
QUANTITY: Vd (L)
Value expressed in L; do not type the unit.

Ask: Data request, read-out Vd, for O=C1CN=C(c2ccccc2)c2cc([N+](=O)[O-])ccc2N1CN1CCCC1 [Neurounina-1]
Result: 154

---

Assay: Pharmacokinetics in plasma after a single intravenous administration to beagle dogs (LC-MS/MS, non-compartmental analysis)
Assay type: in vivo, beagle dog
Conditions: both sexes, beagle, dog, plasma, iv, 1 mg/kg, mean, 1 mg/kg single i.v., beagle dog, n = 5
QUANTITY: Vd (L)
Value expressed in L; do not type the unit.

Ask: Data request, read-out Vd, for O=C1CN=C(c2ccccc2)c2cc([N+](=O)[O-])ccc2N1CN1CCCC1
Result: 211

---

Assay: Pharmacokinetics in plasma after a single intravenous administration to beagle dogs (LC-MS/MS, non-compartmental analysis)
Type: in vivo, beagle dog
Conditions: both sexes, beagle, dog, plasma, iv, 0.1 mg/kg, mean, 0.1 mg/kg single i.v., beagle dog, n = 5; read-out: t1/2 (converted)
QUANTITY: half-life (h)
Value expressed in h; do not type the unit.

Ask: Data request, read-out half-life, for O=C1CN=C(c2ccccc2)c2cc([N+](=O)[O-])ccc2N1CN1CCCC1
Result: 2.14

---

Assay: Pharmacokinetics in plasma after a single intravenous administration to beagle dogs (LC-MS/MS, non-compartmental analysis)
Type: in vivo, beagle dog
Settings: both sexes, beagle, dog, plasma, iv, 0.1 mg/kg, median, 0.1 mg/kg single i.v., beagle dog, n = 5
QUANTITY: clearance (mL/min)
Value expressed in mL/min; do not type the unit.

Ask: Data request, read-out clearance, for O=C1CN=C(c2ccccc2)c2cc([N+](=O)[O-])ccc2N1CN1CCCC1
Result: 795
